test: chemical recovery into PDMS from spiked human plasma; higher = better extraction; settings: pooled human plasma; extraction method: PES with PDMS; equilibration time (d): 1
Answer F if chemical recovery into PDMS is under 20%, and T if it is 20% or more.

{"compound": "Cc1nc(N(C)C)nc(OC(=O)N(C)C)c1C", "qualitative_label": "T"}
{"compound": "CCc1cccc(C)c1N(C(=O)C(=O)O)C(C)COC (stereo unspecified)", "qualitative_label": "F"}
{"compound": "O=c1c2ccccc2[nH]c2ccccc12", "qualitative_label": "F"}
{"compound": "c1ccc2sc(NC3CCCCC3)nc2c1", "qualitative_label": "T"}
{"compound": "Clc1ccc(Cl)c(-c2cc(Cl)c(Cl)cc2Cl)c1", "qualitative_label": "T"}
{"compound": "Cc1cc(Cc2ccc(N)c(C)c2)ccc1N", "qualitative_label": "F"}
{"compound": "C#CC(C)(C)NC(=O)c1cc(Cl)cc(Cl)c1 [Propyzamide]", "qualitative_label": "T"}
{"compound": "CC1(C)CC(N)CC(C)(CN)C1 (stereo unspecified)", "qualitative_label": "F"}
{"compound": "CO/N=C(/C(=O)OC)c1ccccc1CO/N=C(\\C)c1cccc(C(F)(F)F)c1", "qualitative_label": "T"}
{"compound": "CCC(C)OC(=O)N1CCCCC1CCO (stereo unspecified)", "qualitative_label": "T"}
{"compound": "Cc1cc(Cl)ccc1OCC(=O)O", "qualitative_label": "F"}
{"compound": "Cc1cc(C2CC2)nc(Nc2ccccc2)n1", "qualitative_label": "T"}
{"compound": "CCOP(=S)(OCC)SCn1nnc2ccccc2c1=O", "qualitative_label": "T"}
{"compound": "Cc1cc(C2CCCCC2)n(O)c(=O)c1", "qualitative_label": "T"}
{"compound": "CNC(=O)CSP(=O)(OC)OC [Omethoate]", "qualitative_label": "F"}
{"compound": "CO/C=C(/C(=O)OC)c1ccccc1Oc1cc(Oc2ccccc2C#N)ncn1", "qualitative_label": "T"}
{"compound": "C#C[C@]1(OC(C)=O)CC[C@H]2[C@@H]3CCC4=CC(=NO)CC[C@@H]4[C@H]3CC[C@@]21CC (mixture of isomers) [Norgestimate]", "qualitative_label": "F"}
{"compound": "Clc1ccc(-c2cc(Cl)c(Cl)cc2Cl)cc1Cl", "qualitative_label": "T"}
{"compound": "CCNc1nc(Cl)nc(NC(C)(C)C)n1", "qualitative_label": "T"}
{"compound": "c1ccc(-c2ccccc2-c2ccccc2)cc1", "qualitative_label": "T"}

* * *

assay: chemical recovery by SPE of plasma after PDMS sampling; higher = better extraction; details: pooled human plasma; extraction method: HLB SPE of plasma after PES; equilibration time (d): 3
property_measured: chemical recovery by SPE of plasma (%)

{"molecule": "CCNc1nc(Cl)nc(NC(C)C)n1", "val": 4.12}
{"molecule": "O=C1Nc2ccc(Cl)cc2C(C#CC2CC2)(C(F)(F)F)O1 (stereo not given)", "val": 6.96}
{"molecule": "CC(CN1c2ccccc2Sc2ccccc21)N(C)C (stereo not given)", "val": 0.172}
{"molecule": "CC(C)(Oc1ccc(CCNC(=O)c2ccc(Cl)cc2)cc1)C(=O)O [Bezafibrate]", "val": 56.9}
{"molecule": "CC(C1CC1)C(O)(Cn1cncn1)c1ccc(Cl)cc1 (stereo not given)", "val": 2.32}
{"molecule": "ClC1=C(Cl)C2(Cl)C3C4C=CC(C4)C3C1(Cl)C2(Cl)Cl (stereo not given)", "val": 1.34}
{"molecule": "CN1C(=O)CC[C@H]1c1cccnc1", "val": 2.33}
{"molecule": "COc1ccc2cc(C(C)C(=O)O)ccc2c1 (stereo not given)", "val": 36.6}
{"molecule": "CCNC(=O)[C@@H](C)OC(=O)Nc1ccccc1 [Carbetamide]", "val": 45.6}
{"molecule": "Clc1cc(Cl)c(-c2c(Cl)ccc(Cl)c2Cl)cc1Cl", "val": 1.54}
{"molecule": "COCC(C)N(C(=O)CS(=O)(=O)O)c1c(C)csc1C (stereo not given)", "val": 51.4}
{"molecule": "Cc1cc(O)cc(C)c1[S+](C)[O-] (stereo not given) [Methiocarb-sulfoxide phenol]", "val": 66.7}
{"molecule": "Cc1ccc(NC(=O)N(C)C)cc1Cl", "val": 9.6}
{"molecule": "COCC(=O)N(c1c(C)cccc1C)C(C)C(=O)OC (stereo not given) [Metalaxyl]", "val": 5.16}
{"molecule": "O=C(Nc1ccccc1-c1ccc(Cl)cc1)c1cccnc1Cl", "val": 5.2}
{"molecule": "O=P(c1ccccc1)(c1ccccc1)c1ccccc1 [Triphenylphosphine oxide]", "val": 8.53}
{"molecule": "Cc1cc(Cl)ccc1OCC(=O)O", "val": 64.2}
{"molecule": "CCCOC(=O)c1ccc(O)cc1", "val": 43}
{"molecule": "COC(=O)c1cc(C(=O)OC)cc(S(=O)(=O)O)c1 [Dimethyl-5-sulfoisophthalate]", "val": 54.2}
{"molecule": "O=C1Nc2ccc(Cl)cc2C(c2ccccc2)=NC1O (stereo not given)", "val": 30.4}
{"molecule": "CCCCOCCOCCOCc1cc2c(cc1CCC)OCO2 [Piperonyl butoxide]", "val": 0.337}
{"molecule": "Cc1cc(=O)oc2cc(N)ccc12", "val": 34.9}
{"molecule": "O=S(=O)(O)NC1CCCCC1 [Cyclamate]", "val": 5.41}
{"molecule": "CCC(CC)Nc1c([N+](=O)[O-])cc(C)c(C)c1[N+](=O)[O-]", "val": 0.1}
{"molecule": "CCc1cccc(C)c1N(C(=O)CCl)C(C)COC (stereo not given)", "val": 0.63}
{"molecule": "Nc1ccc2c(n1)[nH]c1ccccc12 [2-Amino-9H-pyrido[2,3-b]indole (AalphaC)]", "val": 14.4}
{"molecule": "CN[C@H]1CC[C@@H](c2ccc(Cl)c(Cl)c2)c2ccccc21", "val": 0.321}
{"molecule": "COCC(C)N(C(=O)C(=O)O)c1c(C)csc1C (stereo not given)", "val": 58.9}
{"molecule": "O=C1NCCN1Cc1ccc(Cl)nc1", "val": 50.2}
{"molecule": "CCC(=O)O[C@]1(C(=O)SCF)[C@H](C)C[C@H]2[C@@H]3C[C@H](F)C4=CC(=O)C=C[C@]4(C)[C@@]3(F)[C@@H](O)C[C@@]21C [Fluticasone propionate]", "val": 4.78}
{"molecule": "CC(C)(C)C(=O)C(Oc1ccc(Cl)cc1)n1ccnc1 (stereo not given)", "val": 1.11}
{"molecule": "c1ccc2sc(N3CCOCC3)nc2c1", "val": 1.41}
{"molecule": "CN(C)NC(=O)CCC(=O)O [Daminozide]", "val": 0.206}
{"molecule": "ClC1=C(Cl)C2(Cl)C3C4OC4C(Cl)C3C1(Cl)C2(Cl)Cl (stereo not given) [Heptachlorepoxide]", "val": 2.34}
{"molecule": "Cn1ncc(N)c(Cl)c1=O", "val": 21.3}
{"molecule": "CNC1=C(c2cccc(C(F)(F)F)c2)C(=O)C(c2ccccc2)O1 (stereo not given)", "val": 11}
{"molecule": "c1ccc2c(c1)ccc1ccccc12", "val": 2.33}
{"molecule": "O=C(c1ccc(OCCN2CCCCC2)cc1)c1c(-c2ccc(O)cc2)sc2cc(O)ccc12", "val": 46.1}
{"molecule": "CCc1cccc(C)c1N(C(=O)CS(=O)(=O)O)[C@@H](C)C(=O)O", "val": 28.5}
{"molecule": "CCNc1nc(NC(C)C)nc(SC)n1", "val": 9.36}

* * *

assay: chemical recovery into PDMS from spiked human plasma; higher = better extraction; settings: pooled human plasma; extraction method: PES with PDMS; equilibration time (d): 3
Hi, to clarify the labels: Met covers chemical recovery into PDMS from 40% upward, Not met covers anything below 40%.

{"compound": "ClC=C(c1ccc(Cl)cc1)c1ccc(Cl)cc1 [4,4-DDMU]", "qualitative_label": "Met"}
{"compound": "c1ccc(/N=N/c2ccccc2)cc1 [Azobenzene]", "qualitative_label": "Not met"}
{"compound": "N#Cc1nn(-c2c(Cl)cc(C(F)(F)F)cc2Cl)c(N)c1C(F)(F)F [Fipronil desulfinyl]", "qualitative_label": "Not met"}
{"compound": "O=S(=O)(O)NC1CCCCC1 [Cyclamate]", "qualitative_label": "Not met"}
{"compound": "CC/C(=N\\OC/C=C/Cl)C1=C(O)CC(C2CCOCC2)CC1=O (stereo not given) [Tepraloxydim]", "qualitative_label": "Not met"}
{"compound": "Brc1cc(Br)c(Oc2cc(Br)c(Br)cc2Br)cc1Br [BDE153]", "qualitative_label": "Met"}
{"compound": "Clc1ccc(Cl)c(-c2cccc(Cl)c2Cl)c1 [PCB44]", "qualitative_label": "Met"}
{"compound": "NC(=O)N1c2ccccc2C=Cc2cc(O)ccc21 [2-Hydroxycarbamazepine]", "qualitative_label": "Not met"}
{"compound": "Cc1cc(O)cc(C)c1[S+](C)[O-] (stereo not given) [Methiocarb-sulfoxide phenol]", "qualitative_label": "Not met"}
{"compound": "CN(C)c1ccc(C(=O)c2ccc(N(C)C)cc2)cc1 [Michler's ketone]", "qualitative_label": "Not met"}
{"compound": "Cn1ncc(N)c(Cl)c1=O [Methyldesphenylchloridazon]", "qualitative_label": "Not met"}
{"compound": "CCCCC(=O)O[C@]1(C(=O)CO)[C@@H](C)C[C@H]2[C@@H]3CCC4=CC(=O)C=C[C@]4(C)[C@@]3(F)[C@@H](O)C[C@@]21C [Betamethasone-17-valerate]", "qualitative_label": "Not met"}
{"compound": "CO/C=C(/C(=O)O)c1ccccc1Oc1cc(Oc2ccccc2C#N)ncn1 [Azoxystrobin acid]", "qualitative_label": "Not met"}
{"compound": "Brc1ccc(Oc2c(Br)cc(Br)cc2Br)c(Br)c1 [BDE100]", "qualitative_label": "Met"}
{"compound": "NC(=O)/N=C1\\SCCN1Cc1ccc(Cl)nc1 [Thiacloprid amide]", "qualitative_label": "Not met"}
{"compound": "NC(=O)N1c2ccccc2C=Cc2ccccc21 [Carbamazepine]", "qualitative_label": "Not met"}
{"compound": "CC(=O)O[C@]1(C(C)=O)CC[C@H]2[C@@H]3C[C@H](C)C4=CC(=O)CC[C@]4(C)[C@H]3CC[C@@]21C [Medroxyprogesteroneacetate]", "qualitative_label": "Met"}
{"compound": "CNC(=O)/C(=N/OC)c1ccccc1COc1cc(C)ccc1C [Dimoxystrobin]", "qualitative_label": "Met"}
{"compound": "CN(C)CCC=C1c2ccccc2CCc2ccccc21 [Amitriptyline]", "qualitative_label": "Not met"}
{"compound": "O=C(Nc1ccccc1-c1ccc(Cl)cc1)c1cccnc1Cl [Boscalid]", "qualitative_label": "Met"}
{"compound": "Cc1ccc2[nH]nnc2c1 [5-Methyl-1H-benzotriazole]", "qualitative_label": "Not met"}
{"compound": "OC(Cn1cncn1)(Cn1cncn1)c1ccc(F)cc1F [Fluconazole]", "qualitative_label": "Not met"}
{"compound": "Clc1ccc(C(c2ccc(Cl)cc2)C(Cl)Cl)cc1 [4,4-DDD]", "qualitative_label": "Not met"}
{"compound": "CCN(CC)c1nc(C)cc(OP(=S)(OC)OC)n1 [Pirimiphos-methyl]", "qualitative_label": "Not met"}
{"compound": "NC(=O)Nc1ccc(Cl)c(Cl)c1 [3,4-Dichlorophenylurea]", "qualitative_label": "Not met"}
{"compound": "CCOP(=S)(OCC)SCn1nnc2ccccc2c1=O [Ethyl azinphos]", "qualitative_label": "Met"}
{"compound": "CC(=O)c1cc2c(cc1C)C(C)(C)C(C)CC2(C)C (stereo not given) [Tonalide]", "qualitative_label": "Met"}
{"compound": "CCCCc1c(C)nc(NCC)nc1OS(=O)(=O)N(C)C [Bupirimate]", "qualitative_label": "Met"}
{"compound": "C/C(=N\\C#N)N(C)Cc1ccc(Cl)nc1 [Acetamiprid]", "qualitative_label": "Not met"}
{"compound": "CCOC(=O)NCCOc1ccc(Oc2ccccc2)cc1 [Fenoxycarb]", "qualitative_label": "Met"}
{"compound": "CC(COc1ccc(Oc2ccccc2)cc1)Oc1ccccn1 (stereo not given) [Pyriproxyfen]", "qualitative_label": "Met"}
{"compound": "CCOCCN(C(=O)CCl)C(=C(C)C)c1ccccc1 [Pethoxamid]", "qualitative_label": "Met"}
{"compound": "COCCCC/C(=N\\OCCN)c1ccc(C(F)(F)F)cc1 [Fluvoxamine]", "qualitative_label": "Not met"}
{"compound": "O=C(O)CCC(=O)c1ccc(F)cc1 [4-Fluorobenzoylpropionic acid]", "qualitative_label": "Not met"}
{"compound": "Cc1ccc(NC(=O)N(C)C)cc1Cl [Chlorotoluron]", "qualitative_label": "Not met"}
{"compound": "CN(C)CCOC(c1ccccc1)c1ccccc1 [Diphenhydramine]", "qualitative_label": "Not met"}
{"compound": "CN(C)C(=O)Nc1ccc(Oc2ccc(Cl)cc2)cc1 [Chloroxuron]", "qualitative_label": "Met"}
{"compound": "CNC1=C(c2cccc(C(F)(F)F)c2)C(=O)C(c2ccccc2)O1 (stereo not given) [Flurtamone]", "qualitative_label": "Not met"}
{"compound": "O=C1Nc2ccc(Cl)cc2C(c2ccccc2)=NC1O (stereo not given) [Oxazepam]", "qualitative_label": "Not met"}

Values from the supplement of paper PMC10702517
